# Test system: T-47D breast
# assay-notes: NCI-60 one-dose screen, 48 h (100 = growth as untreated, 0 = no growth, -100 = all killed)
# measurement-conditions: 10 µM unless noted
The panel holds about 83,000 compounds, 20% with a hit somewhere; the sample as a whole holds those more often. Active and inactive are the calls of the source. The calls were made as follows: active = growth percent below 10; inactive = the rest.
measured-parameter: growth

>>> print(df.to_string())
                                    molecule             observed_value
 0  COc1ccc(/C=N/NC(=O)COCC(=O)N/N=C/c2ccc(OC)cc2)cc1            104% (inactive)
 1           CCCCNc1ccc(-c2ccc(NCCCC)cc2)cc1           45.9% (inactive)
 2                    Cc1cc(C)cc(OCC(=O)O)c1           96.6% (inactive)
 3                     O=C(Nc1ccccc1)c1ccco1            103% (inactive)
 4  S=C(NCc1ccccc1)N1CCC(CCCC2CCN(C(=S)NCc3ccccc3)CC2)CC1           71.8% (inactive)
 5                 Cc1cccc(-[n+]2noc(N)n2)c1             59% (inactive)
 6  COC(=O)C1(CC(C)=O)NC(=S)NC(=O)C1C#N (configuration not stated)            108% (inactive)
 7           O=C(O)c1ccccc1Cc1ccc2c(c1)CCCC2            113% (inactive)
 8  NC(=S)c1c(N)n(C2OC(CO)C(O)C2O)c2ncnc(N)c12 (configuration not stated)            -48.2% (active)
 9  CC(=O)C1C(=O)C(=O)N(c2ccc(Cl)c(Cl)c2)C1=O (configuration not stated)           93.2% (inactive)
10                     Cc1ccc(C)c(CN(C)C)c1O            120% (inactive)
11                           Cc1cccc2ccccc12            109% (inactive)
12  CCCCCCCCCCCCCCCCCC(=O)NCCNC(=O)CCCCCCCCCCCCCCCCC           78.6% (inactive)
13  CCCCCCCCCCCCCC/C=C\C(CC(=O)O)C(=O)O (configuration not stated)            115% (inactive)
14  CC1CCC(C)(C)c2ccccc21 (configuration not stated)           91.1% (inactive)
15  OCC(O)COc1ccc(Cl)cc1Cl (configuration not stated)           81.5% (inactive)
16         Nc1ccc2ccccc2c1-c1c(N)ccc2ccccc12           32.2% (inactive)
17  Cc1onc(-c2c(F)cccc2Cl)c1-c1ncc(-c2ccc(Br)cc2)o1           29.6% (inactive)
18                    CCc1ccccc1C(=O)N(CC)CC           92.8% (inactive)
19            O=c1cc(C(F)(F)F)[nH]c(=S)[nH]1           97.7% (inactive)
20  CC(C)NC(=O)OCc1c(COC(=O)NC(C)C)c(-c2ccc(Cl)cc2)n2c1CCC2           36.3% (inactive)
21                        O=C(O)c1cc(I)ccc1O            112% (inactive)
22                Cc1ccc(C(C)C)c(OCC(=O)O)c1            117% (inactive)
23               CCOC(=O)c1c(C)[nH]c(C)c1C=O             82% (inactive)
24  Clc1cccc(Cl)c1C1CSc2ccccc2N=C1c1ccccc1 (configuration not stated)           65.4% (inactive)
25  CCN(CC)c1ccc2nc3ccc(N=Nc4ccc(N(C)C)cc4)cc3[n+](-c3ccccc3)c2c1            0.779% (active)
26                  Cc1ccc(N)c(S(=O)(=O)O)c1            101% (inactive)
27  O=C(NCc1ccco1)Nc1cccc2c(NC(=O)NCc3ccco3)cccc12  69.2% [100 µM] (inactive)
28                 COc1ccc(C)cc1NC(=O)SC(C)C  89.7% [100 µM] (inactive)
29              CCC(=O)Oc1c(C)cc(O)c2ccccc12           79.5% (inactive)
30               CCOC(=O)C(=O)CC(=O)c1ccccc1            105% (inactive)
31  Cc1ccccc1CC(N)C(=O)O (configuration not stated)            103% (inactive)
32  CN(C)CCOC(=O)Nc1ccc(Cc2ccc(NC(=O)OCCN(C)C)cc2)cc1   105% [100 µM] (inactive)
33                       CCCCCCCCNC(=O)C(C)C           95.2% (inactive)
34       COC(=O)c1ccccc1C(=O)c1c(C)cc(C)cc1C           88.8% (inactive)
35  Nc1ccn(C2OC(CO)C(O)C2F)c(=O)n1 (configuration not stated)           94.1% (inactive)
36                      O=c1cc(Cl)nc2ccccn12            103% (inactive)
37                            NC(=O)N1CCOCC1           97.4% (inactive)
38  CC(=O)O[C@H]1CC[C@]2(C)C3=C(C(=O)C[C@H]2C1(C)C)[C@]1(C)CC[C@H]([C@H](C)CCC(=O)O)[C@@]1(C)CC3=O           91.5% (inactive)
39                     C#CCSc1nnnn1-c1ccccc1           39.6% (inactive)
40                              NNC(=O)CCCCl            100% (inactive)
41                  Oc1ccc2ccccc2c1CN1CCOCC1            104% (inactive)
42       Cn1c(=O)c2[nH]c(CC(=O)O)nc2n(C)c1=O            102% (inactive)
43  Cc1cccnc1NC1OC(=O)c2ccccc21 (configuration not stated)           94.2% (inactive)
44  CCC1CCC(C)NC1 (configuration not stated)            106% (inactive)
45    CCCCCCCCCCCCCCCCOc1ccccc1NC(=O)CC(C)=O            111% (inactive)
46          COc1cc(CC#N)c([N+](=O)[O-])cc1OC            105% (inactive)

FYI, the data here is from PubChem BioAssay (NCI).
